experiment notes: Measurement of lipophilicity (octanol/ammonium bicarbonate partitioning, LC-MS)
protocol conditions: n-octanol / 50 mM ammonium bicarbonate, pH 8
Readings of logD at 18 h for the listed molecules

>  <mol>
C[C@H](CCC(=O)O)[C@H]1CC[C@H]2[C@@H]3CC[C@@H]4C[C@H](O)CC[C@]4(C)[C@H]3C[C@H](O)[C@]12C

>  <logD at 18 h>
2.7

$$$$
>  <mol>
CC[C@H]1[C@@H](O)[C@@H]2[C@H](CC[C@]3(C)[C@@H]([C@H](C)CCC(=O)O)CC[C@@H]23)[C@@]2(C)CC[C@@H](O)C[C@@H]12

>  <logD at 18 h>
2.5

$$$$
>  <mol>
C[C@H](CCC(=O)O)[C@H]1CC[C@H]2[C@@H]3CC[C@@H]4CC(=O)CC[C@]4(C)[C@H]3CC[C@]12C

>  <logD at 18 h>
2.4

$$$$

====

experiment notes: physchem
protocol conditions: pH 8
recorded endpoint: logD at 18 h

>  <mol>
C[C@H](CCC(=O)O)[C@H]1CC[C@H]2[C@@H]3CC[C@@H]4C[C@H](O)CC[C@]4(C)[C@H]3CC[C@]12C

>  <recorded endpoint>
logD at 18 h

>  <reading>
3.6

$$$$
>  <mol>
C[C@H](CCC(=O)O)[C@H]1CC[C@H]2[C@@H]3CC[C@@H]4C[C@@H](O)CC[C@]4(C)[C@H]3CC[C@]12C

>  <recorded endpoint>
logD at 18 h

>  <reading>
3.5

$$$$
>  <mol>
C[C@H](CCC(=O)O)[C@H]1CC[C@H]2[C@@H]3CC[C@H]4C[C@@H](O)CC[C@]4(C)[C@H]3CC[C@]12C

>  <recorded endpoint>
logD at 18 h

>  <reading>
2.2

$$$$

====

experimental target: recombinant human RORγt ligand-binding domain (LBD) (Homo sapiens)
Sequence (P51449 269-508 limits assumed): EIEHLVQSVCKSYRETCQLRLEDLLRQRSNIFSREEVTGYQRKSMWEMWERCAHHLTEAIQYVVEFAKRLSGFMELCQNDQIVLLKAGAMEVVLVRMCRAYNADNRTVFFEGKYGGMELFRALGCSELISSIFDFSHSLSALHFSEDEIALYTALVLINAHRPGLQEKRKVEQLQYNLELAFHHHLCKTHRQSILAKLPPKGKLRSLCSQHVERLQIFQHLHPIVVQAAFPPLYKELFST
experiment notes: Microscale thermophoresis assay
protocol conditions: MST, read-out: equilibrium dissociation constant (Kd)
recorded endpoint: Kd

>  <mol>
C[C@H](CCC(=O)O)[C@H]1CC[C@H]2[C@@H]3CC[C@@H]4CC(=O)CC[C@]4(C)[C@H]3CC[C@]12C

>  <reading>
~1000 nM

$$$$
